Measured activity change, negative = inhibition, listed per entry.
Test: qHTS Assay for inhibitors of the human cytomegalovirus (HCMV); also: % is scaled to controls: 0 for no effect and ±100 for the full control effect
Details: HFF cells, HCMV-luciferase reporter, 72 h; at 57.5 µM; hits give low values
In all, about 410,000 compounds went through this assay and about 18,000 (4.4%) were called active. About 7% were inconclusive and are not listed. Only a selection was taken, and actives are over-represented in it overall.
Expressed in %, but write only the number.

Entry COc1ccc(CNC(=O)c2c[nH]c3c(OC)cc(OC)cc3c2=O)cc1 — recorded activity change, negative = inhibition = -39

Entry COc1ccc(CNC(=O)c2cc3cccc(OC)c3oc2=O)cc1 — recorded activity change, negative = inhibition = -88.7

Entry O=C(C[C@H]1C(=O)N(c2ccc(F)c(F)c2)C[C@@H]1Cc1ccccc1)Nc1ccccc1 — recorded activity change, negative = inhibition = -93.1

Entry CN1CCN(Cc2c(O)ccc3c2oc(=O)c2ccccc23)CC1 — recorded activity change, negative = inhibition = -78.7

Entry C=CCNC(=S)N/N=C/c1ccc(C)s1 — recorded activity change, negative = inhibition = 0

Entry Cc1cc(-c2ccccc2)n2nc(-c3ccccc3)cc2n1 — recorded activity change, negative = inhibition = -2.35

Entry Cc1ccc(-c2cnc(C3CC3)o2)cc1S(=O)(=O)Nc1cccc(C)c1C — recorded activity change, negative = inhibition = -35

###

Measured activity change, negative = inhibition, listed per entry.
Experiment: qHTS Assay for inhibitors of the human cytomegalovirus (HCMV); also: % is scaled to controls: 0 for no effect and ±100 for the full control effect
Conditions: HFF cells, HCMV-luciferase reporter, 72 h; at 57.5 µM; hits give low values
Procedure: NCGC Assay Overview: Infection with human cytomegalovirus (HCMV) continues to pose significant threats for pregnant women and immunocompromised hosts. […] This is a cell-based assay for HCMV inhibition in HFFs cells. […] At 72 h post infection cell lysates were collected and luciferase activity was determined using the Glomax-Multi + Detection System (Promega, Madison, WI). […]
In all, about 410,000 compounds went through this assay and about 18,000 (4.4%) were called active. Not shown: some 7% with an inconclusive outcome. What follows is part of a selection rich in actives, with near analogues and random picks from the rest.
Expressed in %, but write only the number.

Observe how each entry below is paired with its result.
compound	activity change, negative = inhibition, %
COc1ccc(Cn2ccc3nc(C)c(C(=O)Nc4ccc(C)c(F)c4)cc3c2=O)cc1	0.318
O=c1oc2ccccc2cc1-c1csc(Nc2ccc(O)cc2)n1	-87.2
CC(C)NC(=O)N1CCN(c2ccncc2S(=O)(=O)N2CCCCC2)CC1	9.43
CCc1cc2c(NC(Cc3ccccc3)C(=O)O)ncnc2s1 (stereo not drawn)	32.8

Entry CCc1nc2cccnc2n1-c1ccc(CC(=O)Nc2c(C)cccc2C)cc1 — recorded activity change, negative = inhibition = 0

Entry CCc1cc2c(SCC(=O)Nc3ncc(Cl)c(C)c3Cl)ncnc2s1 — recorded activity change, negative = inhibition = -15.5

Entry O=S(=O)(c1ccc(Cl)cc1)c1nnn2c1nc(NC1CCCC1)c1sccc12 — recorded activity change, negative = inhibition = 21.2

Entry Cc1ccc(NC(=O)CC2C(=O)N(Cc3ccccc3)C(=S)N2NC(=O)c2cccc(F)c2)c(C)c1 (stereo not drawn) — recorded activity change, negative = inhibition = -70.8

Entry Cc1ccc(NC(=O)c2ccc3[nH]c(C)cc(=O)c3c2)c(C)c1 — recorded activity change, negative = inhibition = -8.34
